Source listed as patent US20240002497A1.

Consider the following binders and their measured Bmax readings.
target: T1, rhNav1.7α + β1-β2-β3 (rhesus Nav1.7α co-expressed with Navβ1, Navβ2 and Navβ3 on cells) (rhesus monkey (α subunit); β subunits …); assay: binding FACS, CHO FlpIn cells
T1 construct: also called rhNav1.7-beta1-beta2-beta3; CHO FlpIn rhNav1.7α + β1-β2-β3
Report as a plain number; the unit % is understood.

Some binders with recorded Bmax:
binder: F010302329 (VHH, also called F0103387G04(L11V, A12V, K33R, R39Q, S50Y, S56D, T60A, W78V, S79Y, T83R, V89L, N93R, S100R)) VHH: EVQLVESGGGVVQPGGSLRLSCAASGPVFNINRMAWYRQAPGKQRELVAYVTPTGDISYADSVKGRFTISRDGSKRVYLQMNSLRPEDTALYYCRALLQPDRYSNTRTYWGQGTLVTVSS
Bmax / %: 44
//
binder: F010302320 (VHH, also called F0103387G04(L11V, A12V, K33R, R39Q, S50Y, S56D, T60A, G73A, W78V, S79Y, T83R, V89L, N93R)) VHH: EVQLVESGGGVVQPGGSLRLSCAASGPVFNINRMAWYRQAPGKQRELVAYVTPTGDISYADSVKGRFTISRDASKRVYLQMNSLRPEDTALYYCRALLQPDSYSNTRTYWGQGTLVTVSS
Bmax / %: 100
//
binder: F010302385 (VHH, also called F0103387G04(L11V, A12V, K33R, R39Q, S50Y, S56D, T60A, D72Q, W78V, S79Y, T83R, V89L, N93R, D99S, N100cG)) VHH: EVQLVESGGGVVQPGGSLRLSCAASGPVFNINRMAWYRQAPGKQRELVAYVTPTGDISYADSVKGRFTISRQGSKRVYLQMNSLRPEDTALYYCRALLQPSSYSGTRTYWGQGTLVTVSS
Bmax / %: 100

Turning now to a further binder:
The binder identified as F010302313 (VHH, also called F0103387G04(L11V, A12V, K33R, R39Q, S50Y, S56D, T60A, G73A, W78V, S79Y, T83R, V89L, N93R, N100cI)) VHH: EVQLVESGGGVVQPGGSLRLSCAASGPVFNINRMAWYRQAPGKQRELVAYVTPTGDISYADSVKGRFTISRDASKRVYLQMNSLRPEDTALYYCRALLQPDSYSITRTYWGQGTLVTVSS registered its Bmax at 96
